Data provenance is patent US4539208A.

assayedTarget: renal dipeptidase (E.C.3.4.13.11) (Sus scrofa, UniProt P22412)
Construct: solubilized preparation of dipeptidase isolated from hog kidneys; from tissue; host or cells: hog (pig) kidney
Sequence (P22412 17-409): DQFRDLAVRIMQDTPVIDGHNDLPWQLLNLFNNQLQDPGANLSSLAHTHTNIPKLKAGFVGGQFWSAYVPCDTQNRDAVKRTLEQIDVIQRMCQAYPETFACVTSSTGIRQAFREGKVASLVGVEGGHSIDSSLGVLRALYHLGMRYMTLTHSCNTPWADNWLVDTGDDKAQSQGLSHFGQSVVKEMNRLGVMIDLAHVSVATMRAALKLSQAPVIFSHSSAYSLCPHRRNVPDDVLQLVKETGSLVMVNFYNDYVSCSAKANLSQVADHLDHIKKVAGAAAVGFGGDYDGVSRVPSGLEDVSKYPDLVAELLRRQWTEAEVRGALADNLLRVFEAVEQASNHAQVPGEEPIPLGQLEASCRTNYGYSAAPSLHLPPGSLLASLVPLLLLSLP
assaySummary: Inhibition of GDP (glycyldehydrophenylalanine) hydrolysis by solubilized renal dipeptidase
Assay type: biochemical, hog (pig) kidney
testContext: 10^-4 M inhibitor; GDP 0.05 mM; pH 7.1; 37° C.
quantity: inhibition at 100 µM (%)

compound="CCCCCCC/C=C(\\NC(=O)C1CC1(C)C)C(=O)O (stereo not shown) [Compound 57]" measvalue=99
compound="CC1(C)CC1C(=O)N/C(=C\\Cc1ccccc1)C(=O)O (stereo not shown) [Compound 59]" measvalue=98
compound="C/C=C(\\NC(=O)CCCC1CCCCC1)C(=O)O [Compound 21]" measvalue=68
compound="C/C=C(\\NC(=O)CC(C)C)C(=O)O [Compound 7, Z-2-isovaleramido-2-butenoic acid]" measvalue=91
compound="CC1(C)CC1C(=O)N/C(=C\\CCS(C)(=O)=O)C(=O)O (stereo not shown) [Compound 55]" measvalue=96
compound="CC(C)CC/C=C(\\NC(=O)C1CC1(C)C)C(=O)O (stereo not shown) [Compound 63]" measvalue=98
compound="C/C=C(\\NC(=O)CCCc1ccccc1)C(=O)O [Compound 37]" measvalue=72
